Item-by-item account of activity, negative = inhibition
# Assay Remarks: Stat Signaling Pathway (AID 446);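 further: ME-180 cervical cancer cells given 40 pM IL-6 alongside compound; SIE-controlled beta-lactamase reporter measured as 460/530 nm FRET emission ratio; on the % scale 0 is the no-effect control and ±100 the full control effect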
# Protocol Conditions: ME-180 (cervical carcinoma) SIE beta-lactamase reporter, IL-6 stimulated, 5 h; at 7.69 µM (top of the series) unless noted
Inconclusive results are not listed.

[
  {
    "Smiles Notation": "COc1ccc(NC(=O)N2CC3(CCN(C(=O)c4ccncc4)CC3)C2)cc1",
    "Value Units": "%",
    "activity, negative = inhibition": 6.73
  },
  {
    "Smiles Notation": "COc1cccc(-c2nc(Nc3ccncc3)c3ccccc3n2)c1",
    "Value Units": "%",
    "activity, negative = inhibition": -15.1
  },
  {
    "Smiles Notation": "CN1CCN(c2ncc3ncc(=O)n(CCc4ccccc4)c3n2)CC1",
    "Value Units": "%",
    "activity, negative = inhibition": 9.6
  },
  {
    "Smiles Notation": "CC(=O)N1CCC2(CCCN(c3ccncc3)C2)CC1",
    "Value Units": "%",
    "activity, negative = inhibition": -5.29
  },
  {
    "Smiles Notation": "N#Cc1cccc(NC(=O)N2CC3(CCN(C(=O)c4ccco4)CC3)C2)c1",
    "Value Units": "%",
    "activity, negative = inhibition": 19.7
  },
  {
    "Smiles Notation": "Cc1noc(C)c1-c1nc(NCc2cccnc2)c2ccccc2n1",
    "Value Units": "%",
    "activity, negative = inhibition": -14.2
  },
  {
    "Smiles Notation": "Cn1cccc1C(=O)N1CCC2(CC1)CN(c1ccccn1)C2",
    "Value Units": "%",
    "activity, negative = inhibition": -6.36
  },
  {
    "Smiles Notation": "CN(C)c1ccc(-c2cncnc2NCc2ccccc2)cc1",
    "Value Units": "%",
    "activity, negative = inhibition": -2.24
  },
  {
    "Smiles Notation": "Cc1cnc(CNc2ccnc(-c3cccnc3)n2)cn1",
    "Value Units": "%",
    "activity, negative = inhibition": 13.3
  },
  {
    "Smiles Notation": "Cc1nc2cnc(N(C)C)nc2n(-c2ccccc2)c1=O",
    "Value Units": "%",
    "activity, negative = inhibition": -16.5
  },
  {
    "Smiles Notation": "COc1ccc2[nH]cc(CCNc3ncncc3-c3ccccc3CN(C)C)c2c1",
    "Value Units": "%",
    "activity, negative = inhibition": 0.332
  },
  {
    "Smiles Notation": "COc1cccc(-c2nccc(NCc3cccs3)n2)c1",
    "Value Units": "%",
    "activity, negative = inhibition": -0.369
  },
  {
    "Smiles Notation": "O=C(c1cccc(F)c1)N1CCC2(CCCN(Cc3cc(C(F)(F)F)cc(C(F)(F)F)c3)C2)CC1",
    "Value Units": "%",
    "activity, negative = inhibition": 3.76
  },
  {
    "Smiles Notation": "Cc1noc(C)c1-c1nccc(NCCN2CCOCC2)n1",
    "Value Units": "%",
    "activity, negative = inhibition": 2.66
  },
  {
    "Smiles Notation": "CC(C)NC(=O)N1CCCC2(CCN(C(=O)c3cccn3C)CC2)C1",
    "Value Units": "%",
    "activity, negative = inhibition": 14.5
  },
  {
    "Smiles Notation": "CC(C)NC(=O)N1CC2(CCN(C(=O)c3cc(C(F)(F)F)cc(C(F)(F)F)c3)CC2)C1",
    "Value Units": "%",
    "activity, negative = inhibition": -11.9
  },
  {
    "Smiles Notation": "COCCn1c(=O)c(-c2ccc(F)cc2)nc2cnc(Oc3cccc(Cl)c3)nc21",
    "Value Units": "%",
    "activity, negative = inhibition": -8.51
  },
  {
    "Smiles Notation": "COCCn1c(=O)c(C)nc2cnc(Nc3ccccc3)nc21",
    "Value Units": "%",
    "activity, negative = inhibition": 3.38
  },
  {
    "Smiles Notation": "O=C(c1csnn1)N1CCC[C@@]2(CCN(c3ccccc3)C2)C1",
    "Value Units": "%",
    "activity, negative = inhibition": -7.17
  },
  {
    "Smiles Notation": "CC(C)CN1CC[C@@]2(CCCN(C(=O)c3cc(C(F)(F)F)cc(C(F)(F)F)c3)C2)C1",
    "Value Units": "%",
    "activity, negative = inhibition": 11.2
  },
  {
    "Smiles Notation": "Cn1c(=O)c(-c2ccccc2)nc2cnc(Oc3ccccc3)nc21",
    "Value Units": "%",
    "activity, negative = inhibition": -0.677
  },
  {
    "Smiles Notation": "O=c1c(-c2ccc(F)c(F)c2)nc2cncnc2n1Cc1ccccc1Cl",
    "Value Units": "%",
    "activity, negative = inhibition": 9.03
  },
  {
    "Smiles Notation": "CS(=O)(=O)Nc1cccc(-c2cncnc2NCc2cccnc2)c1",
    "Value Units": "%",
    "activity, negative = inhibition": -1.28
  }
]
